pIC50: −log10 of the molar value.
Below are pIC50 values for Autotaxin (Homo sapiens) collected from several publications.

Task: Kindly state the measured pIC50 obtained for CC(C(=O)O)[C@H]1CCCN(Cc2ccc3c(C(F)(F)F)c(O[C@H]4CC[C@@H](C(F)(F)F)CC4)ccc3c2)C1 (mixture of isomers) with Autotaxin (Homo sapiens).
Result: ≥ 6.60

Task: Next: `CC(C)Oc1cc(CNc2ncc(C(=O)N3CCC34COC4)cn2)cc(C2CC2)c1`
Result: > 7.00

Task: Further, for `O=C(O)CCC1CCN(Cc2ccc3c(C(F)(F)F)c(O[C@H]4CC[C@@H](C(F)(F)F)CC4)ccc3c2)CC1` ?
Result: ≥ 6.30

Task: Okay, and CCCCCC1CN(Cc2cc(C(C)=O)ccc2OC)C(=O)c2cc(-c3ccc(Cl)cc3)nn21 (centres unmarked) ?
Result: ≤ 6.00

Task: Lookup `CCc1nc2sc(N3CC[C@H](N(C)CC(=O)N4CCOCC4)C3)nn2c1N(C)c1nc(-c2ccc(F)cc2)c(C#N)s1`
Result: 7.00 to 11.00

Task: Entry CC1CC(C)N1C(=O)c1cnc(NCc2cc(OC(F)(F)F)cc(C3CC3)c2)nc1 (single isomer, unassigned) please
Result: ≤ 6.00

Task: What about `Cc1cc(OCc2n[nH]c3nc(NCCO)ccc23)c(C(C)(C)C)cc1Cl` ?
Result: 7.92

Task: Next entry: `CCc1nc2ccc(-c3cnc(N4CCCS4(=O)=O)cn3)cn2c1N(CC)c1nc(-c2ccc(F)cc2)c(C#N)s1`
Result: 7.77

Task: // next record CCCCCC1CN(CC(=O)N2CCC[C@@H]2C)C(=O)c2cc(-c3ccc(Cl)cc3)nn21 (some centres unmarked)
Result: 7.00 to 8.00

Task: Next: `CC(C)Oc1cc(C(=O)N2C[C@@H]3[C@H]4CN(C(=O)c5ccc6[nH]nnc6c5)C[C@H]4[C@@H]3C2)cc2c1ccn2C`
Result: 8.19

Task: Another compound: CCCCCC1CN(CC(=O)N2CCOCC2)C(=O)c2cc(-c3ccc(Cl)cc3)nn21 (centres unmarked)
Result: 6.00 to 7.00

====

Values of IC50 for UniProt Q13822, collected from a number of published sources:

Task: Dear colleague, I am looking for the recorded IC50 of the following molecule: `CC(=O)NC[C@@H](O)CN1C[C@H](C)n2nc(-c3ccc(OC(F)(F)F)cc3NC(C)=O)cc2C1=O`
Result: 10 to 100 nM

Task: `Cc1c(Sc2cccc(C(=O)O)c2)c2ccc(Cl)c(F)c2n1CC(=O)N1CCC2(CCOCC2)C1` ?
Result: ≤ 500 nM

Task: Same again, this time with `Cc1cccc(C(=O)N[C@@H](C(=O)N2CCC3(CC2)C(=O)N(C)CN3c2ccc(C(=O)O)cc2)C(C)C)c1F`
Result: < 500 nM

Task: Cool, now CCC(c1ccc2c(C(F)F)c(O[C@H]3CC[C@@H](C)CC3)ccc2c1)N1CCC[C@H](CC(=O)O)C1 (stereo partly shown)
Result: ≤ 100 nM

====

pIC50: −log10 of the molar value.
Reported pIC50 on Autotaxin (Homo sapiens) for assorted compounds, compiled from publications.

Task: Recorded pIC50 of CO[C@@]12CN(C(=O)OCc3ncc(C(F)(F)F)cc3NC(=O)C(C)(C)C)C[C@H]1CN(C(=O)c1ccc(S(N)(=O)=O)cc1)C2 (single isomer, unassigned) , please.
Result: 7.89

Task: Check CCCCCC1CN(CC(=O)N2CCCCC2CO)C(=O)c2cc(-c3ccc(Cl)cc3)nn21 (stereo not drawn) too.
Result: 7.00 to 8.00

Task: Next entry: `NCCCCCCn1cc(-n2c(C3CC3)c(Sc3cccc(C(=O)O)c3F)c3ccc(Cl)c(F)c32)cn1`
Result: > 6.30
